System: NCI-H1299 (Non-Small Cell Lung Carcinoma);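 note: after 72 h of two-drug dosing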
ASSAY OVERVIEW: Bliss excess, mean over the matrix (fraction); higher = more synergy
Short version: Bliss excess at least -0.02 is condition met, less is condition not met.

# example entries with known answers
C[C@@H](Nc1cc(F)cc(F)c1)c1cc(C(=O)N(C)C)cc2c(=O)cc(N3CCOCC3)oc12 [AZD8186] + C1CN(CCC1(C(=O)N[C@@H](CCO)C2=CC=C(C=C2)Cl)N)C3=NC=NC4=C3C=CN4 [AZD5363] (first compound max 10 µM, 7x7, partner max 10 µM)    condition met
Cc1c2c(nn1C)CSCc1cc(n(C)n1)CSc1cc(c3ccccc3c1)OCCCc1c(C(=O)O)n(C)c3c-2c(Cl)ccc13 [AZD5991] + CC(=O)O[C@H]1C(=O)[C@@]2(C)[C@H]([C@H](OC(=O)c3ccccc3)[C@]3(O)C[C@H](OC(=O)[C@H](O)[C@@H](NC(=O)c4ccccc4)c4ccccc4)C(C)=C1C3(C)C)[C@]1(OC(C)=O)CO[C@@H]1C[C@@H]2O [Paclitaxel] (first compound max 1 µM, 7x7, partner max 3 µM)    condition not met
Cc1c2c(nn1C)CSCc1cc(n(C)n1)CSc1cc(c3ccccc3c1)OCCCc1c(C(=O)O)n(C)c3c-2c(Cl)ccc13 [AZD5991] + C[C@@H](Nc1cc(F)cc(F)c1)c1cc(C(=O)N(C)C)cc2c(=O)cc(N3CCOCC3)oc12 [AZD8186] (first compound max 1 µM, 7x7, partner max 3 µM)    condition met
Cc1nc(-c2cn3c(n2)-c2ccc(-c4cnn(C(C)(C)C(N)=O)c4)cc2OCC3)n(C(C)C)n1 [Taselisib] + O=C(Nc1ccc2[nH]nc(-c3ccncc3)c2c1)[C@@H]1CCN(CC(=O)N2CCN(c3ccc(-c4ncccn4)cc3)CC2)C1 [SCH772984] (first compound max 10 µM, 7x7, partner max 5 µM)    condition met
CC1(C)CCC(CN2CCN(c3ccc(C(=O)NS(=O)(=O)c4ccc(NCC5CCOCC5)c([N+](=O)[O-])c4)c(Oc4cnc5[nH]ccc5c4)c3)CC2)=C(c2ccc(Cl)cc2)C1 [Venetoclax] + CS(=O)(=O)CCNCc1ccc(-c2ccc3ncnc(Nc4ccc(OCc5cccc(F)c5)c(Cl)c4)c3c2)o1 [Lapatinib] (first compound max 1 µM, 7x7, partner max 10 µM)    condition not met

Could you verify whether the entry CN(C)CCCOc1ccc(-c2ccc3ncc4c(c3c2)n(C2CCOCC2)c(=O)n4C)cn1 [AZD0156] + C=CCn1c(=O)c2cnc(Nc3ccc(N4CCN(C)CC4)cc3)nc2n1-c1cccc(C(C)(C)O)n1 [AZD1775] (first compound max 1 µM, partner max 1 µM) shows Bliss excess of no less than -0.02?
condition met

---

Test system: DSH1 (Bladder Carcinoma)
ASSAY OVERVIEW: combination Emax (second highest fraction inhibited in the dose matrix, 72 h); higher = more inhibition; extreme values may be limits of the assay
Binary call on combination Emax: Criterion met from 0.6 upward, Criterion not met beneath that.

# count of solved cases: 6
CCc1c2c(nc3ccc(O)cc13)-c1cc3c(c(=O)n1C2)COC(=O)[C@]3(O)CC [SN-38] + CN(C)CCCOc1ccc(-c2ccc3ncc4c(c3c2)n(C2CCOCC2)c(=O)n4C)cn1 [AZD0156] (first compound max 0.3 µM, 7x7, partner max 1 µM)    Criterion met
C[C@@H]1COCCN1c1cc(C2([S@](C)(=N)=O)CC2)nc(-c2ccnc3[nH]ccc23)n1 [AZD6738] + C1CC(C1)(C(=O)[O-])C(=O)[O-].N.N.[Pt+2] [Carboplatin] (first compound max 10 µM, 7x7, partner max 10 µM)    Criterion met
NC1(C(=O)N[C@@H](CCO)c2ccc(Cl)cc2)CCN(c2ncnc3[nH]ccc23)CC1 [Capivasertib] + C[C@@H]1COCCN1C2=NC(=NC(=C2)C3(CC3)[S@](=N)(=O)C)C4=C5C=CNC5=NC=C4 [AZD6738] (first compound max 10 µM, 7x7, partner max 10 µM)    Criterion met
C=CCn1c(=O)c2cnc(Nc3ccc(N4CCN(C)CC4)cc3)nc2n1-c1cccc(C(C)(C)O)n1 [AZD1775] + O=C(c1cc(Cc2n[nH]c(=O)c3ccccc23)ccc1F)N1CCN(C(=O)C2CC2)CC1 [Olaparib] (first compound max 1 µM, partner max 10 µM)    Criterion not met
NC1(C(=O)N[C@@H](CCO)c2ccc(Cl)cc2)CCN(c2ncnc3[nH]ccc23)CC1 [Capivasertib] + CCN(CCO)CCCOc1ccc2c(Nc3cc(CC(=O)Nc4cccc(F)c4)[nH]n3)ncnc2c1 [AZD2811] (first compound max 10 µM, 7x7, partner max 1 µM)    Criterion met
Cc1cc2ncnn2cc1Nc1ncc2c(n1)n(C1CCOCC1)c(=O)n2C [AZD7648] + O=C(c1cc(Cc2n[nH]c(=O)c3ccccc23)ccc1F)N1CCN(C(=O)C2CC2)CC1 [Olaparib] (first compound max 10 µM, 7x7, partner max 10 µM)    Criterion not met

Given the entry Cc1c2c(nn1C)CSCc1cc(n(C)n1)CSc1cc(c3ccccc3c1)OCCCc1c(C(=O)O)n(C)c3c-2c(Cl)ccc13 [AZD5991] + CN(C)CCCOc1ccc(-c2ccc3ncc4c(c3c2)n(C2CCOCC2)c(=O)n4C)cn1 [AZD0156] (first compound max 1 µM, 7x7, partner max 1 µM) , answer whether its combination Emax meets or surpasses 0.6.
Criterion met
